Tested on: EKVX
test-details: NCI tumour cell line growth inhibition, 48 h
The source made the active and inactive calls. Rule as the data show it: active = GI50 up to about 1.1 µM and inactive = higher.
observed-property: GI50

# compound, result
rows = [
    ("CC1(O)CC23CC(O)C4(O)C(CC(O)C4(C)C)C(C)(O)C2CCC1C3O (stereo not given)", "> 100 µM (inactive)"),
    ("C[C@H](NC(=O)c1ccc(CNC(=O)/C=C/c2cccc(Oc3ccccc3)c2)cc1)c1ccccc1", "> 100 µM (inactive)"),
    ("Cc1cc2c(C(C)C)c(O)c(O)c(C=O)c2c(O)c1-c1c(C)cc2c(C(C)C)c(O)c(O)c(C=O)c2c1O", "1.32 µM (inactive)"),
    ("Cc1ccc(/N=N/C(=NNC(=O)c2ccc(C)cc2)c2ccc(N(C)C)cc2)cc1", "30.1 µM (inactive)"),
]

Consider the record given below.
Lab note: measured GI50 of COC(=O)[C@]1(Cc2ccc3ccccc3c2)CCCCCCN1C(=O)c1ccccc1 was > 27.7 µM (inactive)

* * *

Test system: BT-549
test-details: NCI tumour cell line growth inhibition, 48 h
Activity calls are given as the source filed them. No stated cut-off is given here; in the data, active = GI50 up to about 1.1 µM and inactive = higher.
Just give me one of these, please: active, inactive

Here's what some known entries look like.
# compound, category
measured = [
    ("C=C1c2nc3ccccc3n2C=C(c2ccc(C)cc2)N1c1ccccc1", "inactive"),
    ("CC(O)=C1C(=O)CCC1=O", "inactive"),
    ("Oc1ccc(C(O)(c2ccccc2)c2ccccc2)c2ccccc12", "inactive"),
]

### Prompt For Cc1noc(-c2ccc(C(=O)O)[nH]2)c1Br , which call appears in the assay record?
### Response inactive

### Prompt For COc1cc(/C=N\NC(=O)C[N+](C)(C)C)cc(OC)c1OC , which call appears in the assay record?
### Response inactive

### Prompt For COc1ccc2cc(/C=N\NC(=O)Nc3ccc([N+](=O)[O-])cc3)ccc2c1 , which call appears in the assay record?
### Response inactive

### Prompt For CC1(C)C=C(/C=N/Nc2ccc([N+](=O)[O-])cc2)C(C#N)=C(O)C1(C#N)C#N , which call appears in the assay record?
### Response inactive

### Prompt For O=C1CC(Cc2n[nH]c3c2CCCC3)CC(=O)N1 , which call appears in the assay record?
### Response inactive

* * *

Test system: T47D
test-details: NCI tumour cell line growth inhibition, 48 h
The source made the active and inactive calls. Cut-off read from the data, not from the text of the source: active = GI50 up to about 1.1 µM and inactive = higher.
Just give me one of these, please: active, inactive

Here's what some known entries look like.
# compound, category
measured = [
    ("CN(C)/C=N/CCN1CCOCC1", "inactive"),
    ("O=C1c2c(O)cccc2Cc2cc(CO)cc(O)c21", "inactive"),
    ("O=C1C(/N=N/c2ccc(-c3nc4ccccc4[nH]3)cc2)NC(=S)N1c1ccccc1 (stereo not given)", "inactive"),
    ("CC1(O)CC23CC(O)C4(O)C(CC(O)C4(C)C)C(C)(O)C2CCC1C3O (stereo not given)", "inactive"),
    ("O=C(COc1cc(=O)oc2ccccc12)c1ccccc1", "inactive"),
]

### Prompt For Cc1nc2ccccc2n1Cc1ccc(NC(=S)NC2CCCCC2)cc1 , which call appears in the assay record?
### Response inactive

### Prompt For CC(C)(C)c1cc(COc2cc(COc3ccc(-c4c5c(nc6c4CCc4ccc(-c7c8ccccc8nc8ccccc78)cc4-6)-c4cc(-c6c7ccccc7nc7ccccc67)ccc4CC5)cc3)cc(OCc3cc(C(C)(C)C)cc(C(C)(C)C)c3)c2)cc(C(C)(C)C)c1 , which call appears in the assay record?
### Response inactive

### Prompt For NC(CSC1c2ccccc2-c2ccccc21)C(=O)O (stereo not given) , which call appears in the assay record?
### Response inactive

### Prompt For CCNCC(=O)O[C@]1(CC)C(=O)OCc2c1cc1n(c2=O)Cc2cc3ccccc3nc2-1 , which call appears in the assay record?
### Response active

### Prompt For Nc1nc(=O)c2cc(NCc3ccc(C(=O)NC(CCC(=O)O)C(=O)O)cc3)ccc2[nH]1 (stereo not given) , which call appears in the assay record?
### Response inactive

* * *

Tested on: UACC-62
test-details: NCI tumour cell line growth inhibition, 48 h
Activity calls are given as the source filed them. No stated cut-off is given here; in the data, active = GI50 up to about 1.1 µM and inactive = higher.
# GI50 values compiled below

Example results:
# molecule, assay-system, GI50
data = [
    ("Cc1ccc(/N=N/c2c(C)nn(C(=O)CC(=O)Nc3ccc(Cl)cc3)c2C)cc1C", "UACC-62", "79.4 µM (inactive)"),
    ("CCCN(CCCC(NC(C)=O)C(=O)NCc1ccccc1)C(=O)NCCCl (stereo not drawn)", "UACC-62", "> 100 µM (inactive)"),
    ("CC(C)OP(=O)(OC(C)C)c1c(N)n[nH]c1Nc1ccccc1", "UACC-62", "> 100 µM (inactive)"),
]

Lab note: measured GI50 of C[C@H](O)C1CC(Cn2nnc3c(N)ncnc32)C1(C)C (stereo partly drawn) was 5.36 µM (inactive)

Lab note: measured GI50 of COc1cc(C)cc2c1c(=O)c1ccccc1n2C was 33.7 µM (inactive)

Lab note: measured GI50 of CN(C)Cc1c[nH]c2ncnc(O)c12 was 20.9 µM (inactive)

Lab note: measured GI50 of COC1C(O)C(C)OC(OC2C(Oc3cccc4c(O)c5c(=O)oc6ccc(C)c7c(=O)oc(c34)c5c67)OC(C)C(O)C2O)C1O (stereo not drawn) was 1.17 µM (inactive)

Lab note: measured GI50 of NNc1nc2ccccc2c(=O)n1NC(=O)C(=O)Nc1cccc(C(F)(F)F)c1 was > 100 µM (inactive)

Lab note: measured GI50 of O=C(CCc1ccc(O)c(O)c1)NCCc1ccc(O)c(O)c1 was > 100 µM (inactive)

Lab note: measured GI50 of O=C(CCC(C(=O)OCc1ccccc1)C(=O)OCc1ccccc1)Nc1ccc(OCc2ccccc2)cc1 was > 100 µM (inactive)

* * *

System: SK-MEL-2
test-details: NCI tumour cell line growth inhibition, 48 h
The source made the active and inactive calls. Rule as the data show it: active = GI50 up to about 1.1 µM and inactive = higher.
observed-property: GI50

# compound, assay-system, result
records = [
    ("C=CC1(CCC(Br)C(C)(C)Cl)CO1 (stereo unspecified)", "SK-MEL-2", "> 10 µM (inactive)"),
]

Lab note: measured GI50 of O=C(N/N=C(/c1nc2ccc([N+](=O)[O-])cc2[nH]c1=O)C(O)c1ccc([N+](=O)[O-])cc1)c1ccncc1 (stereo unspecified) was > 100 µM (inactive)

Lab note: measured GI50 of O=C1[C@H]2ON(c3ccccc3)C(c3ccc([N+](=O)[O-])cc3)[C@H]2C(=O)N1c1ccc(Cc2ccc(N3C(=O)[C@@H]4ON(c5ccccc5)C(c5ccc([N+](=O)[O-])cc5)[C@@H]4C3=O)cc2)cc1 (stereo partly specified) was > 100 µM (inactive)

Lab note: measured GI50 of CN1CCC23c4ccccc4NC1C21CCN(C)C3Nc2ccccc21 was > 375 µM (inactive)

Lab note: measured GI50 of CCc1cc2c(c3c1CCCC3=O)CC1(C2)Cc2cc(CC)c3c(c2C1)C(=O)CCC3 was > 100 µM (inactive)

Lab note: measured GI50 of CC(C)=CCC/C(C)=C/CC/C(C)=C/CC/C(C)=C/CC/C(C)=C/CC/C(C)=C/CC/C(C)=C/CC/C(C)=C/CC/C(C)=C/CO was > 100 µM (inactive)

Lab note: measured GI50 of Cc1cc(C)n(-c2nsc3ccccc23)n1 was > 100 µM (inactive)

Lab note: measured GI50 of CC1/C=C/[C@@]2(C)CCC(C(C)(C)O)C2C(O)C[C@](C)(O)/C=C/C1 (stereo partly specified) was > 100 µM (inactive)

* * *

Tested on: MDA-MB-231
test-details: NCI tumour cell line growth inhibition, 48 h
Active and inactive are the calls of the source. No stated cut-off is given here; in the data, active = GI50 up to about 1.1 µM and inactive = higher.
observed-property: GI50

With MDA-MB-231 as the test system, OC1(c2ccc3ccccc3c2)c2ccc3ccccc3c2C2=NCCN21 (stereo unspecified) showed GI50 of 76.4 µM (inactive)

With MDA-MB-231 as the test system, NS(=O)(=O)OCCCCCCCOS(N)(=O)=O showed GI50 of 445 µM (inactive)

With MDA-MB-231 as the test system, CC12CP(=O)(O)CC1C2(Cl)Cl (stereo unspecified) showed GI50 of > 100 µM (inactive)

With MDA-MB-231 as the test system, CC(=O)O[C@@H]1[C@H](C(C)C)[C@@H](OC(C)=O)C/C(C)=C/CC[C@]2(C)O[C@@H]12 showed GI50 of > 100 µM (inactive)

With MDA-MB-231 as the test system, Cc1cn([C@@H]2O[C@H](CO[Si](C)(C)C(C)(C)C)[C@]3(O[C@H]3C(=O)NN)[C@H]2O[Si](C)(C)C(C)(C)C)c(=O)[nH]c1=O showed GI50 of 3.57 µM (inactive)

With MDA-MB-231 as the test system, COC(=O)[C@]1(Cc2ccc3ccccc3c2)CCCCCCN1C(=O)c1ccccc1 showed GI50 of > 36.4 µM (inactive)

With MDA-MB-231 as the test system, CC(C)(C)c1cc(COc2cc(COc3ccc(-c4c5c(nc6c4CCc4ccc(-c7c8ccccc8nc8ccccc78)cc4-6)-c4cc(-c6c7ccccc7nc7ccccc67)ccc4CC5)cc3)cc(OCc3cc(C(C)(C)C)cc(C(C)(C)C)c3)c2)cc(C(C)(C)C)c1 showed GI50 of > 100 µM (inactive)

With MDA-MB-231 as the test system, COc1ccc2cc(/C=N\NC(=O)Nc3ccc([N+](=O)[O-])cc3)ccc2c1 showed GI50 of 13.9 µM (inactive)

With MDA-MB-231 as the test system, Cc1cc(-c2nc3cc(F)ccc3s2)ccc1NC(=O)C(C)N (stereo unspecified) showed GI50 of 3.77 µM (inactive)

With MDA-MB-231 as the test system, CC1(C)C=C(/C=N/Nc2ccc([N+](=O)[O-])cc2)C(C#N)=C(O)C1(C#N)C#N showed GI50 of > 100 µM (inactive)

With MDA-MB-231 as the test system, O=C1C(Cl)=C(N2CCC[C@@H]2CO)C(=O)c2c(O)ccc(O)c21 showed GI50 of 2.02 µM (inactive)
